- Tested on: Bacillus sp. TA 27860
- PROTOCOL DETAILS: Minimum Inhibitory Concentration, agarwell diffusion assay (Table 6)
- Assay type: cell-based
- TEST CONTEXT: Bacillus, SP.TA27860, Bacillus sp. TA 27860, read-out: Minimum Inhibitory Concentration
Where a name gives a salt, the structure may show the parent alone.
Answer each item with its documented MIC.
Give bare numbers, in µg/mL.

// solved cases for MIC follow
-- ask Given the entry CCC1(C2OC(C3OC(O)(COC(=O)Nc4ccc(F)cc4)C(C)CC3C)CC2C)CCC(C2(C)CCC3(CC(O)C(C)C(C(C)C(OC)C(C)C(=O)O)O3)O2)O1 (stereo not shown) , what MIC was observed with Bacillus sp. TA 27860?
-- reply 0.8

-- ask Could you do the same for CCC1(C2OC(C3OC(O)(COC(=O)Nc4ccc(C)cc4)C(C)CC3C)CC2C)CCC(C2(C)CCC3(CC(O)C(C)C(C(C)C(OC)C(C)C(=O)O)O3)O2)O1 (stereo not shown) , please?
-- reply 0.2

-- ask Again, but for CCC1(C2OC(C3OC(O)(COC(=O)Nc4ccc(Oc5ccccc5)cc4)C(C)CC3C)CC2C)CCC(C2(C)CCC3(CC(O)C(C)C(C(C)C(OC)C(C)C(=O)O)O3)O2)O1 (stereo not shown)
-- reply 0.2

-- ask What about this compound? CCC1(C2OC(C3OC(O)(COC(=O)Nc4ccc(Cl)cc4)C(C)CC3C)CC2C)CCC(C2(C)CCC3(CC(O)C(C)C(C(C)C(OC)C(C)C(=O)O)O3)O2)O1 (stereo not shown)
-- reply 0.2

-- ask Follow-up entry: COC(C(C)C(=O)O)C(C)C1OC2(CCC(C)(C3CCC(C)(C4OC(C5OC(O)(COC(=O)NCCc6ccccc6)C(C)CC5C)CC4C)O3)O2)CC(O)C1C (stereo not shown)
-- reply 3.1

# batch size: 2; output MIC per entry
1. CCC1(C2OC(C3OC(O)(COC(=O)Nc4ccc(Br)cc4)C(C)CC3C)CC2C)CCC(C2(C)CCC3(CC(O)C(C)C(C(C)C(OC)C(C)C(=O)O)O3)O2)O1 (stereo not shown) [Monensin A, 4-bromophenylurethane, sodium salt]
2. CCC1(C2OC(C3OC(O)(COC(=O)NC4CC4c4ccccc4)C(C)CC3C)CC2C)CCC(C2(C)CCC3(CC(O)C(C)C(C(C)C(OC)C(C)C(=O)O)O3)O2)O1 (stereo not shown)

-- reply
0.2
0.4

----------
- Tested on: Bacillus sp. TA 27860
- PROTOCOL DETAILS: Minimum Inhibitory Concentration, agarwell diffusion assay (Table 6)
- Type: cell-based
- TEST CONTEXT: Bacillus, SP.TA27860, Bacillus sp. TA 27860, read-out: Minimum Inhibitory Concentration
Kindly supply the reported MIC values for the records listed here.
Give bare numbers, in µg/mL.

-- ask # get_value(readout='MIC', item= CCC1(C2OC(C3OC(O)(COC(=O)NCCc4ccccc4)C(C)CC3C)CC2C)CCC(C2(C)CCC3(CC(O)C(C)C(C(C)C(OC)C(C)C(=O)O)O3)O2)O1 (centres unmarked) )
-- reply 1.6

Below are some compounds; for each one, tell me its MIC.
1. CCCCNC(=O)OCC1(O)OC(C2CC(C)C(C3(CC)CCC(C4(C)CCC5(CC(O)C(C)C(C(C)C(OC)C(C)C(=O)O)O5)O4)O3)O2)C(C)CC1C (centres unmarked)
2. CCC1(C2OC(C3OC(O)(COC(=O)NC)C(C)CC3C)CC2C)CCC(C2(C)CCC3(CC(O)C(C)C(C(C)C(OC)C(C)C(=O)O)O3)O2)O1 (centres unmarked)
3. CCC1(C2OC(C3OC(O)(COC(=O)Nc4ccccc4)C(C)CC3C)CC2C)CCC(C2(C)CCC3(CC(O)C(C)C(C(C)C(OC)C(C)C(=O)O)O3)O2)O1 (centres unmarked)
4. CCC1(C2OC(C3OC(O)(COC(=O)Nc4ccc(C(C)=O)cc4)C(C)CC3C)CC2C)CCC(C2(C)CCC3(CC(O)C(C)C(C(C)C(OC)C(C)C(=O)O)O3)O2)O1 (centres unmarked)

-- reply
1. 0.4
2. 12.5
3. 0.4
4. 0.8
